- Tested on: COLO 205
- Measurement Protocol: NCI tumour cell line growth inhibition, 48 h
Active and inactive are the calls of the source. No stated cut-off is given here; in the data, active = GI50 up to about 1.1 µM and inactive = higher.
Measurement Kind: GI50

- Compound: "COc1ccc(C2=NN(c3ccccc3)C[N+](c3ccc(C)cc3)=N2)cc1"
  Recorded Measurement: "31.3 µM (inactive)"

Read off the recorded GI50 for CC(=O)OCC1OC(n2c(C)c(C(C)=O)c(-c3cccc4ccccc34)c(C#N)c2=S)C(OC(C)=O)C(OC(C)=O)C1OC(C)=O (stereo not given)
> 100 µM (inactive)

Read off the recorded GI50 for COc1ccc(/C=C2\CCC(C)(CN(C)C)C2=O)cc1 (stereo not given)
> 100 µM (inactive)

Read off the recorded GI50 for C=C1[C@@H]2CCC(C)(C)[C@H]1CCC(=O)[C@@H]2C(=O)OC
> 100 µM (inactive)

Read off the recorded GI50 for CCOC(=O)Nc1cc2ccccc2c(/N=N/c2ccccc2)c1O
> 100 µM (inactive)

Read off the recorded GI50 for CCc1ccccc1NC(=O)C1=C(C)NC(C)=C(C(=O)Nc2c(CC)cccc2CC)C1c1ccc2c(c1)OCO2 (stereo not given)
19.5 µM (inactive)

* * *

- System: KM-20L2
- Measurement Protocol: NCI tumour cell line growth inhibition, 48 h
Activity calls are given as the source filed them. No stated cut-off is given here; in the data, active = GI50 up to about 1.1 µM and inactive = higher.
Collected GI50 values appear next to each entry.

- Compound: "CN1NC2(CCCCC2)ON=C1c1ccccc1"
  Recorded Measurement: "> 100 µM (inactive)"
- Compound: "COc1ccc(C(=O)/C=C/c2ccc(OCC(=O)N3CCN(c4ccccc4)CC3)cc2)cc1"
  Recorded Measurement: "> 100 µM (inactive)"

Read off the recorded GI50 for CCOc1ccc(/C=C2/C(=O)N=C(N)N=C2N)cc1OCC
> 100 µM (inactive)

Read off the recorded GI50 for COC(=O)C(C/C=C(\C)c1ccc(Cl)cc1)C(C)=O (stereo unspecified)
35.9 µM (inactive)

Read off the recorded GI50 for C=CC(C)C1(CCCOCc2ccccc2)C(=S)N2CCC3(CC24CCCC14)OCCO3 (stereo unspecified)
62.2 µM (inactive)

Read off the recorded GI50 for CCO[C@]12C[C@H](OC)[C@@]3(O)CC(C1[C@H]3O)C13C4C2[C@H](OC)C1[C@](COC)(CN4CC)[C@H](O)C[C@@H]3OC (stereo partly specified)
> 100 µM (inactive)

Read off the recorded GI50 for O=C(CCN1CCN(c2ccccc2)CC1)N1CCc2c([nH]c3ccccc23)C1c1cccnc1 (stereo unspecified)
15.9 µM (inactive)

Read off the recorded GI50 for C/C(CC(=O)Nc1ccc(C)cc1C)=N/N=C(N)N
> 100 µM (inactive)

Read off the recorded GI50 for COC1C(OC(=O)c2ccc(C)[nH]2)C(O)C(Oc2ccc3c(O)c(NC(=O)c4c[nH]c(C(=O)Nc5c(O)c6ccc(OC7OC(C)(C)C(OC)C(OC(=O)c8ccc(C)[nH]8)C7O)c(C)c6oc5=O)c4C)c(=O)oc3c2C)OC1(C)C (stereo unspecified)
2.4 µM (inactive)

Read off the recorded GI50 for CC12CCC([C@H](N3CCOCC3)/C1=N\OCCN1CCCC1)C2(C)C (stereo partly specified)
> 100 µM (inactive)

Read off the recorded GI50 for CCOC1=C2N=C(C(CC)c3ccccc3F)N=C2C(=O)c2ccccc21 (stereo unspecified)
> 100 µM (inactive)

Read off the recorded GI50 for CCCCN(CCCC)C(=O)C(=O)C(C)C(=O)CC (stereo unspecified)
> 100 µM (inactive)

Read off the recorded GI50 for O=C(c1cccs1)N(C(=S)N1CCN(c2ccccn2)CC1)c1ccccc1
> 100 µM (inactive)

Read off the recorded GI50 for NNC(=O)N/N=C1\C(=O)N(c2ccc(Cl)c(Cl)c2)C(=O)C(=O)C1c1nc2ccccc2s1 (stereo unspecified)
> 100 µM (inactive)

Read off the recorded GI50 for CC(=O)NC1=C(N)C(=O)c2ccccc2C1=O
87.5 µM (inactive)

Read off the recorded GI50 for CCCCCCCCCCCCCCCC(=O)Nc1ccn(C2OC(CO)C(O)C2O)c(=O)n1 (stereo unspecified)
40.3 µM (inactive)

Read off the recorded GI50 for CC(O)c1ccc[n+](Cc2ccccc2)c1 (stereo unspecified)
> 400 µM (inactive)

Data provenance is ChEMBL document CHEMBL1201862.
